Tested on: OVCAR-4 ovarian
Assay: NCI-60 one-dose screen, 48 h (100 = growth as untreated, 0 = no growth, -100 = all killed)
Conditions: 10 µM unless noted
This is part of a sample that, as a whole, favours compounds with a hit. Of some 83,000 tested, about 20% had one in any assay.
assayEndpoint: growth (%)
Give bare numbers, in %.

# annotated cases, reported growth shown
{"compound": "C#CCCCCCCC[C@@H]1OC(=O)[C@H]([C@@H](C)CC)NC(=O)[C@@H]([C@@H](C)CC)NC(=O)CC(=O)[C@@H]1C", "assayEndpoint": "growth", "unitsText": "%", "measuredResult": 99.3}
{"compound": "COc1cccc(CNC(=O)c2cccc(C3CC(=O)c4c(cc(OC)c(OC)c4OC)O3)c2)c1 (stereo not given)", "assayEndpoint": "growth", "unitsText": "%", "measuredResult": 78.3}
{"compound": "CC(=O)/C(=C\\c1c(-c2ccccc2)[nH]c2ccccc12)S(=O)(=O)c1ccccc1", "assayEndpoint": "growth", "unitsText": "%", "measuredResult": 17.7}
{"compound": "COC(=O)c1cc(=O)nc(N/N=C/c2ccccc2O)s1", "assayEndpoint": "growth", "unitsText": "%", "measuredResult": 50.8}
{"compound": "COc1ccc(OC)c(Cn2cc3c(c2)-c2oncc2CC3)c1", "assayEndpoint": "growth", "unitsText": "%", "measuredResult": 69.1}

I need growth for every entry listed below, if you could help.
1. COc1cc2oc(-c3ccc(NC(=O)c4ccccc4)cc3)cc(=O)c2c(OC)c1OC
2. COc1cc(-c2cc3cnccc3c3nc(N)c4ccncc4c23)cc(OC)c1OC

OUTPUT:
[64.6, 73.5]

Below are 3 compounds. Give each one its growth.
1. N=C(N)N=Nc1ccc(NN=C(N)N)cc1
2. COc1ccc(CNCCCN2C(=O)c3ccc4c5c(ccc(c35)C2=O)C(=O)N(CCCNCc2ccc(OC)c(OC)c2OC)C4=O)c(OC)c1OC
3. O=C1c2ccccc2CCc2ccccc21

OUTPUT:
1. 100
2. -97.3
3. 104

Count: 6. Required value per item: growth.
1. COc1ccc(C(=O)N2N=C(c3ccc(Br)cc3)CC2c2cn(-c3ccccc3)nc2-c2ccccc2)cc1 (stereo not given)
2. O=C1N/C(=N\c2nnc(-c3ccc(O)cc3)s2)S/C1=C\c1ccccc1O
3. CCCCCCCCCCCCc1ccc([N+](CC)(CC)CC)cc1
4. Cc1ncc(C(=O)Nc2ccc(CN3CCN(C)CC3)c(C(F)(F)F)c2)cc1C#Cc1c(N)ncc2ccccc12
5. CC(=O)Nc1nc(C)c(C(=O)N/N=C/N2CCOCC2)s1
6. O=C1C(=O)c2ccccc2C(O)=C1CCCc1ccc(Oc2ccccc2)cc1

OUTPUT:
1. 67.5
2. 88.2
3. 21.6
4. -58.8
5. 119
6. 59.6

# batch size: 7; output growth per entry
1. CCCCCCCCCCCCOC(=N)N(C)C
2. O=Nc1c(-c2c(O)[nH]c3cc(Br)ccc23)[nH]c2ccccc12
3. COCC(=O)NNc1[nH]c(-c2ccc(OC)cc2)cc1C#N
4. CCCCCCC(C(=O)OCC)(C(=O)OCC)C1CCCCCC1
5. O=C(O)/C(Br)=C/c1c[nH]c2ccc(Br)cc12
6. COc1cc([C@@H]2c3cc4c(cc3[C@H](O)[C@H]3COC[C@@H]23)OCO4)cc(OC)c1OC
7. CN(CCC#N)c1ccc(/C=C(\C#N)c2cccc(C(F)(F)F)c2)cc1

OUTPUT:
117
7.53
127
101
59.7
85.8
68.3

Take each entry in turn and give its growth.
1. O=C(Nc1cccc(Cn2c(=O)[nH]c3ccc(Oc4ncccn4)cc3c2=O)c1)c1cccc(F)c1
2. O=C1C=C(OCC=C(C(F)(F)F)C(F)(F)F)c2ccccc2C1=O
3. COc1cccc(NC(=O)NCCNc2nccc(-c3c(-c4ccc(F)cc4)nc4sccn34)n2)c1
4. CCCCN(CCCC)c1ccc(C(=O)O)cc1
5. CC1(c2ccc(Br)cc2)NC(=O)NC1=O (stereo not given)
6. CC(O)C(N)=O (stereo not given)
7. COc1cc2ncnc(-n3ncc4cc(NC(=O)Nc5ccc(Cl)c(C)c5)ccc43)c2cc1OC
8. COc1cc(N2C(=O)C=CC2=O)ccc1N1C(=O)C=CC1=O

OUTPUT:
1. 73.9
2. -7.2
3. 96
4. 101
5. 104
6. 97.4
7. 98.3
8. 102

For each of the compounds below, note its growth.
1. CCCCCCCCCCCCCCCCCCOP(=O)(O)O
2. N=C(N)c1ccc(-c2ccc(-c3ccc(Cl)cc3)s2)s1

OUTPUT:
1. 117
2. -50.8

Items follow; give growth for each.
1. COc1cc2c(c3c1c(=O)c1cccc(F)c1n3C)C=CC(C)(C)O2
2. Cc1nnc(-c2cc3c(ccc4ccccc43)oc2=O)c2cn(-c3ccc(Cl)cc3)nc12

OUTPUT:
1: 101; 2: 83.8

# per-item lookup of growth; items listed below
1. CSC1=Nc2c(c(C)c(-c3ccccc3)n2CCCCl)C2=NC(=O)CN12
2. CCOc1ccc(N(C)c2ccc(/C=C/C3=[N+](C)c4ccccc4C3(C)C)cc2)cc1
3. CC(C)CSc1nc(-c2ccc(F)cc2)c(C#N)c(N2CCCCC2)n1
4. Cc1c(CN(C)C)cc(C(C)C)cc1C(C)C

OUTPUT:
75.5
37.1
97.1
98.8

INPUT: Tell me growth reported for "Cc1c(Cc2ccccc2)c(=O)oc2c(C)c(OCC(=O)n3nc(C#N)cc3N)ccc12"
OUTPUT: 93

====

System: RXF 393 renal
Experiment: NCI-60 one-dose screen, 48 h
Conditions: 10 µM unless noted
Compounds without any hit were thinned out: in the full panel of roughly 83,000, 20% have a hit. The source made the active and inactive calls. Rule for the calls: active = growth percent below 10; inactive = the rest.
Permitted responses: y = active, n = inactive

Worked cases, answers included:
{"compound": "N#Cc1c2cccnc2c2nnc3cc(Cl)c(Cl)cc3n12", "assayedTarget": "RXF 393 renal", "classification": "y"}
{"compound": "Clc1ccc(I)c2ccccc12", "assayedTarget": "RXF 393 renal", "classification": "n"}
{"compound": "O=c1c(N=Nc2nccs2)c(-c2ccccc2)[nH]n1-c1nc(-c2ccccc2)cs1", "assayedTarget": "RXF 393 renal", "classification": "n"}
{"compound": "C#CCCCCCCC[C@@H]1OC(=O)[C@H]([C@@H](C)CC)NC(=O)[C@H]([C@@H](C)CC)NC(=O)CC(=O)[C@@H]1C", "assayedTarget": "RXF 393 renal", "classification": "n"}
{"compound": "COC(=O)[C@H](Cc1cn(C)cn1)NC(=O)[C@H](CC(=O)OCc1ccccc1)NC(=O)Nc1cc(C(F)(F)F)cc(C(F)(F)F)c1", "assayedTarget": "RXF 393 renal", "classification": "y"}

INPUT: Each compound tested received a call. Report the one for "O=C(Nc1cccc(Cn2c(=O)[nH]c3ccc(Oc4ncccn4)cc3c2=O)c1)c1cccc(F)c1" .
OUTPUT: n

INPUT: Outcome logged for C/C=C(/C)C(=O)OC1C=C(CO)C(=O)C(OC(=O)C2(C)OC2C)C1C(C)C (stereo not drawn) in this assay:
OUTPUT: y

INPUT: What outcome does the record of this test show for "N=C(N)c1ccc(-c2ccc(-c3ccc(Cl)cc3)s2)s1" ?
OUTPUT: y

INPUT: For "Cc1cc2cn3c4ccc(O)cc4nc(N)c3c2cc1C" , which call appears in the assay record?
OUTPUT: n

INPUT: Recorded test outcome, item "O=C(Nc1ccc(-n2cc(-c3ccncc3)c(-c3ccc(Cl)c(O)c3)n2)cc1)Nc1cc(C(F)(F)F)cc(C(F)(F)F)c1"
OUTPUT: y

INPUT: What did the test return for "Cc1nnc(/N=C2\NC(=O)/C(=C/C=C/c3ccccc3)S2)s1" ?
OUTPUT: n

INPUT: In this assay, the call recorded for "CNCCCNCCCCNCCCN1C(=O)c2ccc3c4c(ccc(c24)C1=O)C(=O)N(CCCNCc1ccccc1OC)C3=O" was what?
OUTPUT: n

INPUT: Short answer needed: outcome of this test for "COc1cccc(NC(=O)NCCNc2nccc(-c3c(-c4ccc(F)cc4)nc4sccn34)n2)c1" ?
OUTPUT: n

INPUT: Any idea what this test logged for "CCn1cnc(C[C@H](NC(=O)[C@@H](NC(=O)Nc2cc(C(F)(F)F)cc(C(F)(F)F)c2)C(C)(C)C)C(=O)OC)c1" ?
OUTPUT: y

INPUT: Please let me know the test result on file for COc1ccc2cc(C(C)C(=O)Nc3ccc(S(=O)(=O)Nc4cc(C)on4)cc3)ccc2c1 (stereo not drawn) .
OUTPUT: n

INPUT: Please state the recorded outcome for this compound: "CCCCCCC(=O)C(C)C"
OUTPUT: n

INPUT: Could you please tell me the result logged for COc1cc(/C=C/C(=O)c2ccc(F)cc2)ccc1OCCCCOc1cc2c(cc1OC)C(=O)N1CCCC1C=N2 (stereo not drawn) in this assay?
OUTPUT: y

INPUT: Test call for this compound, please: Cc1c([C@H](C(Cl)Cl)[C@H](O)[C@H]2C[C@H](C)C(=O)O2)ccc2c1C(=O)[C@H]1[C@H]2C[C@@H](Br)[C@@]23O[C@@H](CO[C@H]2O)CC13C (stereo partly drawn)
OUTPUT: n

INPUT: Hey, what did the test say about "O=C(N/N=C/c1coc2ccccc2c1=O)c1cc2oc(-c3ccccc3)cc2[nH]1" ?
OUTPUT: n

INPUT: Per the assay record, what outcome was assigned to "CCn1cc(C(=O)O)c(=O)c2cc(F)c(N3CCN(S(=O)(=O)c4ccc(Cl)cc4)CC3)cc21" ?
OUTPUT: n

INPUT: Hi, sorry to bother you, what did the test record for "C=CCSc1nnc(COc2ccc3c(C)c(Cc4ccccc4)c(=O)oc3c2C)o1" ?
OUTPUT: n

INPUT: Would you mind telling me which call this test gave "CC[C@H](Nc1ncnc2nc[nH]c12)c1nc2cccc(NCc3ccc(C(=O)NO)nc3)c2c(=O)n1-c1ccccc1" ?
OUTPUT: n

INPUT: Give the logged outcome of this assay for the following compound: "CC1=C(C)C[C@]2(C(=O)O[C@H]3CCCC[C@@H]32)[S@](=O)C1"
OUTPUT: n
